Cited source for all entries: patent US9688764B2

test system: mfPRLR.mmh (monomeric macaca fascicularis PRLR); assay: Surface plasmon resonance (Biacore T200), mAb-capture format; type: binding; conditions: 25° C., antibody-capture format, analyte mfPRLR.mmh
Sequence (as listed by the source): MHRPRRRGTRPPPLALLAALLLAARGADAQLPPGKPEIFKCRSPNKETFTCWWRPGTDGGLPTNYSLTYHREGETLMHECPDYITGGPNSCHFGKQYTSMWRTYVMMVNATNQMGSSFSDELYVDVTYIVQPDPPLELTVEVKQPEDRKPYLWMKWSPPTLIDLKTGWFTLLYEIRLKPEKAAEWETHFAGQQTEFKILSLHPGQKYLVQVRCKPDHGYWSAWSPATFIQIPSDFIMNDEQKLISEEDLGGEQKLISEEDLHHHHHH
READOUT_TYPE: T½ (min)
Give just the number in min; leave the unit off.

MOLECULE	RESULT
H1H6793P: anti-PRLR antibody, human IgG1 Fc; HCVR/LCVR SEQ ID NOs 146/154 (antibody, V domains shown, human IgG1 Fc) VH: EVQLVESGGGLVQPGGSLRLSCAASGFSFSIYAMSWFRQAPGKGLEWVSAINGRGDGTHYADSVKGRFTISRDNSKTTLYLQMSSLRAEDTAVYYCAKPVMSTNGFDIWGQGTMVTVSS VL: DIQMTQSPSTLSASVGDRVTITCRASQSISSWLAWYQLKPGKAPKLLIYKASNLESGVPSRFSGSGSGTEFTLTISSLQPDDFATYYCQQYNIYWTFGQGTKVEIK	29

# ---- query molecule ----
Read the entry H1H6960N: human IgG1 Fc form of H2M6960N; anti-PRLR; HCVR/LCVR SEQ ID NOs 322/330 (antibody, V domains shown, human IgG1 Fc) VH: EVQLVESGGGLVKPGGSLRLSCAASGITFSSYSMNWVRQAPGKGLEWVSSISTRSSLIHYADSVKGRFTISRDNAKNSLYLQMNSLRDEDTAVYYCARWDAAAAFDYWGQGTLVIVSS VL: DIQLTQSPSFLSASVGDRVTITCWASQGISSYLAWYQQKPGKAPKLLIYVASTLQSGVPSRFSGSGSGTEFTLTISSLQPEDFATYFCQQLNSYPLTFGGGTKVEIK and write its reported T½.
19.8
